Just for reference, patent US8178570B2 is where these values come from.

Observed IC50 values for Tie-2 (Homo sapiens, UniProt Q02763) are listed in what follows.

Guide cases for IC50, answers given:
1. CCOC(=O)Cn1nc(-c2ccncc2)nc1-c1cc(Cl)cc(Cl)c1 | ≥ 10 µM
2. COc1ccc(-c2nc(-c3ccncc3)nn2CCNC(=O)Cc2cccc3ccccc23)cc1Cl | 1 to 10 µM
3. COc1ccc(-c2nc(-c3ccncc3)nn2CCN(C(=O)Nc2ccccc2OC)C2CCCC2)cc1Cl | ≥ 10 µM
4. CCOc1ccc(NC(=O)N(CCn2nc(-c3ccncc3)nc2-c2ccc(OC)c(Cl)c2)C2CCCC2)cc1 | 1 to 10 µM
5. COc1ccc(-c2nc(-c3ccncc3)n(CCN(C(=O)Cc3cccc4ccccc34)C(C)C)n2)cc1Cl | ≥ 10 µM

Return IC50 measured with Tie-2 (Homo sapiens, UniProt Q02763) given this compound: COc1ccc(-c2nc(-c3ccncc3)n(CC(=O)NC3CCCC3)n2)cc1Cl
Sequence (Q02763 23-1124): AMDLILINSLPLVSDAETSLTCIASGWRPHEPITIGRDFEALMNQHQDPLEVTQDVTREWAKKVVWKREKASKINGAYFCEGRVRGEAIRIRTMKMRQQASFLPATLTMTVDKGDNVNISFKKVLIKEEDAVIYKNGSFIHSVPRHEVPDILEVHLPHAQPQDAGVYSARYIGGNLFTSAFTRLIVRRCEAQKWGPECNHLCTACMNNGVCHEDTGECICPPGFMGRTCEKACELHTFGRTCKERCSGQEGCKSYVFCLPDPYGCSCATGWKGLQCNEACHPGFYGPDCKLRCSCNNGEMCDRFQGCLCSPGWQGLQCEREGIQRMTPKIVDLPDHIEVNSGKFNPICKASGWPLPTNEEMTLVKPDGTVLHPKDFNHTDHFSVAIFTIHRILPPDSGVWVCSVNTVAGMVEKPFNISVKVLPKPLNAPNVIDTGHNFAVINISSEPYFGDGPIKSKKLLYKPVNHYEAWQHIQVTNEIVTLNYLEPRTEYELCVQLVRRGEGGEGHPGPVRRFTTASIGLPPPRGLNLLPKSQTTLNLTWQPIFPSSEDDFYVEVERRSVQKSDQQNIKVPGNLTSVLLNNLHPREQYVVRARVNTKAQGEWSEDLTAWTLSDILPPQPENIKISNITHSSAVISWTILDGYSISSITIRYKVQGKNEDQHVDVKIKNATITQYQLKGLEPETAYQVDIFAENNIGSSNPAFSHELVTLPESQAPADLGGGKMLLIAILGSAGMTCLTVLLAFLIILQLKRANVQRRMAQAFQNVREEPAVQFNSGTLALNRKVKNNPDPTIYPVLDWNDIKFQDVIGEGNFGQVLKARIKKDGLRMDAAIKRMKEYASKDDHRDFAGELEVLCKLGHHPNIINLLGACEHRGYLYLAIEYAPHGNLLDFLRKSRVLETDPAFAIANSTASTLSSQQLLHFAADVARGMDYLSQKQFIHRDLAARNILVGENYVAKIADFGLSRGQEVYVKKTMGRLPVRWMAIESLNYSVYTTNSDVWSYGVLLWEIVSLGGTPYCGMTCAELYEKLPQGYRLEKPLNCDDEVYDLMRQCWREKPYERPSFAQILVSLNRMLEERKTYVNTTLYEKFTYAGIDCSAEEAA
≥ 10 µM

GET /values?readout=IC50&system=Tie-2 (Homo sapiens, UniProt Q02763)&item= COc1ccc(-c2nc(-c3ccncc3)nn2CCN(C(=O)Nc2cccc(C(C)=O)c2)C2CCCC2)cc1Cl
≥ 10 µM

For Tie-2 (Homo sapiens, UniProt Q02763), provide IC50 of COc1ccc(NC(=O)N(CCn2nc(-c3ccncc3)nc2-c2ccc(OC)c(Cl)c2)C2CCCC2)cc1 please.
≥ 10 µM

* * *

Biological target: Tie-2 (Homo sapiens, UniProt Q02763)
ASSAY METRIC: IC50

1) COc1ccc(-c2nc(-c3ccncc3)nn2CCN(C(=O)Nc2cc(Cl)ccc2C)C2CCCC2)cc1Cl [Entry 149] | 1 to 10 µM

I would be grateful if you could share the reported IC50 for COc1ccc(-c2nc(-c3ccncc3)nn2CCN(C(=O)Nc2ccc(F)c(Cl)c2)C2CCCC2)cc1Cl [Entry 153] .
≥ 10 µM

Reported IC50 for CCCCCNC(=O)N(CCn1nc(-c2ccncc2)nc1-c1ccc(OC)c(Cl)c1)C1CCCC1 [Entry 103] : what is it?
≥ 10 µM

Quick check: IC50 of O=C(Cc1cccc2ccccc12)N(CCn1nc(-c2ccncc2)nc1-c1ccc(C(F)(F)F)cc1)C1CCCC1 [Entry 76] ?
< 0.05 µM

Fill in the blank: the reported IC50 of COc1ccc(-c2nc(-c3ccnc(Cl)c3)nn2CCN(C(=O)Cc2cccc3ccccc23)C2CCCC2)cc1Cl [Entry 53] is ____.
≥ 10 µM

So what's the measured IC50 for this one? COc1ccc(-c2nc(-c3ccncc3)nn2CCN(C(=O)NCc2ccccc2)C2CCCC2)cc1Cl [Entry 92]
1 to 10 µM

Looking for the measured IC50 of Cc1nc(-c2ccncc2)nn1CCN(CCN(C)C)C(=O)Cc1cccc2ccccc12 [Entry 170] , can you help?
1 to 10 µM

* * *

Catalogue of pIC50 values
Target: Tie-2 (Homo sapiens, UniProt Q02763)
Test: Tie-2 tyrosine kinase activity: kinase-dependent ATP consumption (pEY substrate, luciferase/luciferin chemiluminescence) or 33P-ATP incorporation into substrate
Format: biochemical
Details: Tie-2 (human enzyme) inhibition, Table 2, class symbols A-D
pIC50: −log10 of the molar value.

Guide cases for pIC50, answers given:
1) COc1ccc(-c2nc(-c3ccncc3)n(CCCN(C(=O)Cc3cccc4ccccc34)C3CCCC3)n2)cc1Cl [Entry 9] | ≤ 5.00
2) COC(=O)CCn1nc(-c2ccc(OC)c(Cl)c2)nc1-c1ccncc1 [Entry 7] | ≤ 5.00
3) COc1ccc(-c2nc(-c3ccncc3)n(CCN(C(=O)Cc3cccc4ccccc34)C3CCCCC3)n2)cc1Cl [Entry 37] | 6.00 to 7.30
4) Cc1nc(-c2ccnc(NC3CCCNC3)c2)nn1CCN(C(=O)Cc1cccc2ccccc12)C1CCCC1 (centres unmarked) [Entry 181] | 6.00 to 7.30
5) O=C(Cc1cccc2ccccc12)N(CCn1nc(-c2ccncc2)nc1-c1cccc(Br)c1)C1CCCC1 [Entry 65] | > 7.30
6) COc1ccc(-c2nc(-c3ccccc3)nn2CC(=O)NC2CCCC2)cc1Cl [Entry 33] | ≤ 5.00

Reported pIC50 for O=C(Cc1cccc2ccccc12)N(CCn1nc(-c2ccncc2)nc1-c1ccc2c(c1)OCO2)C1CCCC1 [Entry 63] : what is it?
> 7.30

Item under review: COc1ccc(-c2nc(-c3ccncc3)nn2CCN(C(=O)Cc2ccc3ccccc3c2)C2CCCC2)cc1Cl [Entry 48] . Reported pIC50?
≤ 5.00
